Published IC50 for Vascular endothelial growth factor receptor 1 (Homo sapiens, UniProt P17948), assembled from different documents, is shown next.
Exam item: assign Met to entries whose IC50 is below 300 nM and Not met to entries at or above 300 nM. Note that a value of exactly 300 nM receives Not met.

A selection of reference data follows.
COc1cc2c(Nc3c(F)cc(Br)cc3F)ncnc2cc1OCC1CCN(C)CC1: Not met
CCOC(=O)NCc1ccc(-c2cc(NC(=O)c3ccc(N4CCN(C)CC4)cc3)[nH]n2)cc1: Not met
OB(O)c1ccc2ncnc(Nc3cccc(Cl)c3)c2c1: Not met
Cc1n[nH]c2ccc(-c3cc(N[C@@H](CO)c4ccccc4)cnc3Cl)cc12: Not met
Cc1ccc2c(Cc3ccncc3)nnc(Nc3ccc(Cl)cc3)c2c1: Not met

In plain terms, does O=C(Nc1ccc(Oc2ncnc3sccc23)cc1)Nc1cccc(Br)c1 come in under 300 nM for IC50?
Not met

Is 300 nM strictly greater than the compound's reported IC50? compound: O=C(Nc1ccc(Br)cc1)c1nscc1NCc1ccncc1
Met

Does COCCOc1cc2ncnc(Nc3cccc(B(O)O)c3)c2cc1OC have IC50 strictly under 300 nM?
Not met

Lab note: IC50 threshold 300 nM. Does this compound come in strictly under it? CCCc1cc(N2CCC(N)CC2)nc2sc(C(N)=O)c(N)c12
Not met

Strictly below 300 nM in IC50? CC1=[N+](c2ccccc2)C(=O)C(C(=O)Nc2ccc(Oc3ccc4nc(NC(=O)C5CC5)cn4c3)c(F)c2)C=C1 (stereo not given)
Met
